These entries and their values trace back to patent EP0450097B1.

# maps each entry to its pIC50
- measurementTarget: V₁ receptor (Rattus norvegicus, UniProt P30560)
- Construct: Using rat liver plasma membrane preparations
- Sequence (P30560 whole entry): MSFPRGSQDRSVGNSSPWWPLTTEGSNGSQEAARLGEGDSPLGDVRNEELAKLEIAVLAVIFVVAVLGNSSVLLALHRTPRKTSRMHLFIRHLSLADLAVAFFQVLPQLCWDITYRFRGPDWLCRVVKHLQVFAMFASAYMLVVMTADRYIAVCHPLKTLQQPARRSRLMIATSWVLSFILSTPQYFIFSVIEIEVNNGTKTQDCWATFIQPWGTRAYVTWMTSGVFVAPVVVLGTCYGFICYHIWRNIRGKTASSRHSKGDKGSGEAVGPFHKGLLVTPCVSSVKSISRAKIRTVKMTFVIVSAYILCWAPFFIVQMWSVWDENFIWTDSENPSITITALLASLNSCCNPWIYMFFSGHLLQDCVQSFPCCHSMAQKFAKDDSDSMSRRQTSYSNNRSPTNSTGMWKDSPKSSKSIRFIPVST
- protocol: V₁ receptor binding assay ([³H]-Arg-vasopressin, rat liver plasma membrane preparations)
- assayConditions: 37°C for 10 minutes
pIC50: −log10 of the molar value.

- compound: "CCN(CC(=O)Nc1ccc(C(=O)N2CCCC(O)c3ccccc32)c(Cl)c1)c1ccccc1 (stereo not shown) [compound 222]"
  pIC50: 7.02
- compound: "Cc1ccccc1C(=O)Nc1ccc(C(=O)N2CCCC(OCC(=O)N3CCSCC3)c3ccccc32)cc1 (stereo not shown) [compound 279]"
  pIC50: 6.82
- compound: "Cc1ccccc1C(=O)Nc1ccc(C(=O)N2CCCC(CO)c3ccccc32)cc1 (stereo not shown) [compound 215]"
  pIC50: 6.89
- compound: "COc1cc(C(=O)N2CCCCc3ccccc32)ccc1NC(=O)c1ccccc1 [compound 77]"
  pIC50: 7.07
- compound: "O=C(Nc1ccc(C(=O)N2CCCCc3ccccc32)cc1)c1cccc(Cl)c1 [compound 30]"
  pIC50: 6.82
- compound: "Cc1ccccc1C(=O)Nc1ccc(C(=O)N2CCCC(O)c3ccccc32)cc1 (stereo not shown) [compound 143]"
  pIC50: 6.82
- compound: "CCN(CC(=O)Nc1ccc(C(=O)N2CCCC(N(C)C)c3cc(Cl)ccc32)cc1)c1ccccc1 (stereo not shown) [compound 308]"
  pIC50: 6.96
- compound: "O=C(Nc1ccc(C(=O)N2CCC=Cc3ccccc32)cc1)c1ccccc1Cl [compound 207]"
  pIC50: 6.80
- compound: "COc1cccc(C(=O)Nc2ccc(C(=O)N3CCCCc4ccccc43)cc2)c1 [compound 29]"
  pIC50: 6.82
- compound: "Cc1ccccc1C(=O)Nc1ccc(C(=O)N2CCCC(OCCCN)c3ccccc32)cc1 (stereo not shown) [compound 173]"
  pIC50: 6.82
